Assay Info: Toxicity liver stage against HepG2, at 10uM
Format: cell-based
Design: test concentration 10 uM, cell line HepG2-A16-CD81EGFP
Protocol Conditions: human, HepG2-A16-CD81EGFP cells; read-out: INHIBITION
The entries below are paired with their reported cytotoxicity at 10 µM.
Enter your answer as a number in %; do not include the unit.

## Task Please look up its cytotoxicity at 10 µM: Cc1cnn(CC2CN(Cc3cccc(OC(C)C)c3)CCO2)c1 (centres undefined)
## Result -4.83

* * *

The entries below are paired with their reported cytotoxicity at 10 µM.
Assay Info: Toxicity liver stage against HepG2, at 10uM
Assay type: cell-based
Set-up: test concentration 10 uM, cell line HepG2-A16-CD81EGFP
Protocol Conditions: human, HepG2-A16-CD81EGFP cells; read-out: INHIBITION
Enter your answer as a number in %; do not include the unit.

| Compound | Uom | cytotoxicity at 10 µM |
| --- | --- | --- |
| O=c1n(Cc2cccc(F)c2)nc2ncccn12 | % | -7.9 |
| Cc1ncccc1Oc1ncnc(N2CCCC(O)(CO)CC2)c1C (stereo not drawn) | % | 4.3 |
| Cc1noc(C)c1S(=O)(=O)NCC(O)c1ccc2c(c1)CCO2 (stereo not drawn) | % | 0.407 |
| Cc1nc(C)n(CC2CCCCN2CCCN2CCCC2=O)n1 (stereo not drawn) | % | -2.35 |
| CN(Cc1noc(C(C)(C)C)n1)C1CCCN(c2cccnn2)C1 (stereo not drawn) | % | -7.96 |

## Task Please look up its cytotoxicity at 10 µM: CCCNC(=O)c1cn(C(C)(C)C)c2ncccc12
## Result -0.317

## Task Please look up its cytotoxicity at 10 µM: Cn1cc(C2CC(=O)NC23CCN(C(=O)Cc2ccccn2)CC3)cn1 (stereo not drawn)
## Result 5.06

## Task Please look up its cytotoxicity at 10 µM: Cc1cccc(C(=O)N2CCC(c3n[nH]c(C4CC4)n3)CC2)c1
## Result -15.3

* * *

Assay Info: Toxicity liver stage against HepG2, at 10uM
Type: cell-based
Design: test concentration 10 uM, cell line HepG2-A16-CD81EGFP
Protocol Conditions: human, HepG2-A16-CD81EGFP cells; read-out: INHIBITION
The entries below are paired with their reported cytotoxicity at 10 µM.
Enter your answer as a number in %; do not include the unit.

| Compound | Uom | cytotoxicity at 10 µM |
| --- | --- | --- |
| CS(=O)(=O)NC[C@]12COC[C@H]1CN(C(=O)C1CC=CC1)C2 | % | -105 |

## Task Please look up its cytotoxicity at 10 µM: c1ccc(Cc2noc(-c3ccc(NCC4CCCCO4)nc3)n2)cc1 (stereo not given)
## Result 3

* * *

Assay Info: Toxicity liver stage against HepG2, at 10uM
Type: cell-based
Parameters: test concentration 10 uM, cell line HepG2-A16-CD81EGFP
Protocol Conditions: human, HepG2-A16-CD81EGFP cells; read-out: INHIBITION
Readout: cytotoxicity at 10 µM (%)
Enter your answer as a number in %; do not include the unit.

Solved cases below.
| Compound | Uom | cytotoxicity at 10 µM |
| --- | --- | --- |
| CCN1CCN(C(=O)c2cc(NC(=O)c3ccccc3)n(C)n2)CC1 | % | 8.91 |
| CN(Cc1ccco1)C(=O)CN1CCCC1c1cccs1 (centres undefined) | % | -3.62 |
| Cc1cnc(C(C)(C)NC(=O)NCc2ccon2)s1 | % | -6.75 |
| Cc1ccc(CN2CC[C@H]3OCC[C@@H](C(=O)NCC4CC4)[C@@H]3C2)o1 | % | 0.951 |
| O=C(NC[C@H]1OC[C@@H]2CN(Cc3ccco3)CC[C@@H]21)c1cccnc1 | % | -141 |
| CNS(=O)(=O)c1ccc(C(=O)N2CCCC2c2ccccc2)o1 (centres undefined) | % | -7.67 |
| O=C(c1cccc(O)c1)N1CCC2(CCN2c2ncccn2)C1 (centres undefined) | % | -139 |
| Cn1cc(C2CCCN2C(=O)c2ccc(OCC3CC3)nc2)cn1 (centres undefined) | % | -7.77 |

## Task Please look up its cytotoxicity at 10 µM: CS(=O)(=O)CCCC(=O)N1CCN(CC2CC2)c2ccccc21
## Result -3.2

## Task Please look up its cytotoxicity at 10 µM: CC(=O)N1CCN([C@@H]2CN(C(=O)c3ccccc3C)C[C@H]2O)CC1
## Result -3.79

## Task Please look up its cytotoxicity at 10 µM: Cc1nc2n(n1)CC(NCC(=O)NCCCOC(C)C)CC2 (centres undefined)
## Result -5.03

## Task Please look up its cytotoxicity at 10 µM: Cn1cncc1-c1nnc([C@H]2CCN(CC3CCCCC3)C2)o1
## Result -4.65

## Task Please look up its cytotoxicity at 10 µM: COc1cccc(S(=O)(=O)N2C[C@H](OC)[C@]3(CCCO3)C2)c1
## Result -25.7

## Task Please look up its cytotoxicity at 10 µM: CN(CCC(F)(F)F)C(=O)c1nc(S(C)(=O)=O)n2ccccc12
## Result -7.51
